- assay: chemical genetic growth profiling, strain panel (AID 1159580);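 also: tested at 20 µM; growth read once vehicle control cultures reached saturation at 30 °C; 1 = growth at the plate median or of vehicle wells; lower values mean less growth of the strain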
- condition.info: S. cerevisiae deletion strains, growth OD, locus YLR102C, strain apc9, active compounds read low
The whole screen tested about 5,500 compounds, of which about 2,000 (36%) were called active. Another 18% or so got no clear call; they are omitted. The list shows a part of the results. Where a SMILES comes first, the peptide text is derived from it. Bridges are numbered along the chain shown (N, C = ends). [ ]: non-standard residue; d: D form. The star is where a group is joined. ξ: configuration not given here. ξDab(CH2SO3H) = NC(CCNCS(=O)(=O)O)C(=O)O; Heptanoyl(6-Me) = CC(C)CCCCC(=O)*; Dab = NCC[CH](N)C(=O)O; For = O=C*

molecule	normalized growth
Cc1cc(O)cc(O)c1C(=O)O	1.01
OC(CCN1CCCCC1)(c1ccccc1)C1CCCCC1 (stereo unspecified)	0.995
OC(CCN1CCCC1)(c1ccccc1)C1CCCCC1 (stereo unspecified)	0.972
CC(C)=CCCC1(C)C=Cc2c(O)c3c(c(CC=C(C)C)c2O1)OC12C(=CC4CC1C(C)(C)OC2(C/C=C(/C)C(=O)O)C4=O)C3=O (stereo unspecified)	0.97
Clc1ccccc1C(c1ccccc1)(c1ccccc1)n1ccnc1	0.0623
CCCCCCCCCCCC[C@H](C(=O)O)[C@@H](C)C(=O)O	1.01
CC1(C)CC[C@@]2(C(=O)O)C(C1)C1=CCC3[C@@]4(C)CC[C@H](O)C(C)(C)C4CC[C@@]3(C)[C@]1(C)C[C@@H]2O (stereo partly specified)	1.02
CC(C)=CCCC1(C)C=Cc2c(O)c3c(c(CC=C(C)C)c2O1)OC12C(=CC4CC1C(C)(C)OC2(C/C=C(\C)C(N)=O)C4=O)C3=O (stereo unspecified)	1.01
NNc1nncc2ccccc12	0.991
COC(=O)Nc1nc2ccc(Sc3ccccc3)cc2[nH]1	1
CSCCC(NC=O)C(=O)NC(Cc1ccccc1)C(=O)O (stereo not drawn) (For-Met-Phe-OH; configuration not given here)	1.02
CC1(C)CC[C@]2(C(=O)O)CC[C@]3(C)C(=CCC4[C@@]5(C)CC[C@@H](O)C(C)(C)C5CC[C@]43C)C2C1 (stereo partly specified)	1.02
C#C[C@]1(O)CCC2C3CCC4=CC(=O)CC[C@@H]4C3CC[C@@]21C (stereo partly specified)	0.978
Cc1cc(O)ccc1Cl	1
CC(=O)Nc1ccc(OCC(O)CNC(C)C)cc1 (stereo unspecified)	0.996
Cc1cc(O)cc(=O)o1	0.991
CCC(C)C(=O)O[C@H]1[C@H](O)C2C(CN3CC(C)CCC3[C@@]2(C)O)C2C[C@]34O[C@]5(O)C(OC(=O)C(C)(O)CC)CC[C@@]3(C)C5C(OC(C)=O)[C@@H](OC(C)=O)C4[C@@]21O (stereo partly specified)	0.995
Nc1c2ccccc2nc2ccccc12 (tested in a mixture with another compound)	0.943
COc1c(CC(=O)c2cc3c(cc2O)OC(C)(C)C(O)C3)ccc2c1C=CC(C)(C)O2 (stereo unspecified)	0.992
CC1(C)CC[C@]2(C)CC[C@]3(C)C(=CCC4[C@@]5(C)CC[C@H](O)C(C)(C)C5CC[C@]43C)C2C1 (stereo partly specified)	1.01
Cc1ccc(S(=O)(=O)NC(=O)NN2CC3CCCC3C2)cc1 (stereo unspecified)	1.01
Nc1c2c(nc3ccccc13)CCCC2	1.01
Nc1c2c(nc3ccccc13)CCCC2O (stereo unspecified)	0.984
NCCC(=O)N[C@@H](Cc1cnc[nH]1)C(=O)O	0.991
CC(=O)/C=C\[C@@H]1[C@@]2(C)CCCC(C)(C)C2CC[C@@]1(C)O (stereo partly specified)	0.973
Nc1ccc(S(=O)(=O)Nc2cnc3ccccc3n2)cc1	0.992
CCC(C)C1NC(=O)C(CCNCS(=O)(=O)O)NC(=O)C(NC(=O)C(CCNCS(=O)(=O)O)NC(=O)C(NC(=O)C(CCNCS(=O)(=O)O)NC(=O)CCCCC(C)C)C(C)O)CCNC(=O)C(C(C)O)NC(=O)C(CCNCS(=O)(=O)O)NC(=O)C(CCNCS(=O)(=O)O)NC(=O)C(C(C)CC)NC1=O (stereo unspecified) ({Heptanoyl(6-Me)}-[ξDab(CH2SO3H)]T[ξDab(CH2SO3H)][Dab][ξDab(CH2SO3H)]II[ξDab(CH2SO3H)][ξDab(CH2SO3H)]T; lactam 4-C; configuration not given here)	0.962
N[C@H](C(=O)O)[C@@H]1CC(Cl)=NO1	0.28
Cc1cc(C(C)(C)C)c(O)c(C(C)(C)C)c1	0.989
CC(C)(Sc1cc(C(C)(C)C)c(O)c(C(C)(C)C)c1)Sc1cc(C(C)(C)C)c(O)c(C(C)(C)C)c1	1.03
CC(=O)NC(C(=O)O)C(C)(C)SN=O (stereo unspecified)	0.993
C[C@H]1[C@H](C)CC[C@]2(CO)CC[C@]3(C)C(=CCC4[C@@]5(C)CC[C@H](O)C(C)(C)C5CC[C@]43C)[C@H]12 (stereo partly specified)	1.02
C=C/C(C)=C\CC1C(C)(O)CCC2C(C)(C)CCCC21C (stereo unspecified)	0.186
N#CC(O[C@@H]1O[C@H](CO[C@@H]2O[C@H](CO)[C@@H](O)[C@H](O)[C@H]2O)[C@@H](O)[C@H](O)[C@H]1O)c1ccccc1 (stereo partly specified)	0.983
CC(C)(C#N)O[C@@H]1O[C@H](CO)[C@@H](O)[C@H](O)[C@H]1O	0.983
O=C(O)/C=C1\CCCc2ccccc2C1O (stereo unspecified)	0.977
